Recorded apparent KD of K4 kissing-loop reporter values for a group of sequences are listed next.
# System: K4 kissing-loop RNA reporter;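 further: bound reporter read as fluorescence of individual clusters on recovered sequencing chips by microscopy, with normalized cluster intensities fitted with a binding model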
# Experiment Notes: apparent KD of K4 kissing-loop reporter; higher = weaker reporter binding
# Experimental Setup: Eterna round: R107; input ligand: FMN 200 uM
Report the figure in nM without appending any unit label.

Biosequence: GUUUGGCGGGCGGCCGCCACUCGGACGAGUCGCAGUGAUGUUGUGGUUUGCCAGUCGUCUUCAUCGAGGACCGGGUUUGUCGGGC [Exclusion Tryptophan B GF 19]
Measured Endpoint: apparent KD of K4 kissing-loop reporter
Unit Spec: nM
Observed Result: 495
//
Biosequence: GCGUCAUCGAAAGGAUAUGGAGUAGUGAUGUUGAUCCAUAUGCUCACGCAUAGCCGAGAACAUCGACCAGAAGGUUCAAGAACUG [theeternabot_exclusion_KL_FMN_B_41]
Measured Endpoint: apparent KD of K4 kissing-loop reporter
Unit Spec: nM
Observed Result: 672
//
Biosequence: UUUUUUAAUGGAAGGAGCGCGUGGGCGCAGUGAUGUUGCGCCCGACAUCACUUCAACUUAACGCAGGUAGGUCGCCAUUAUUUUU [Arginine B (Excl) V6]
Measured Endpoint: apparent KD of K4 kissing-loop reporter
Unit Spec: nM
Observed Result: 136
//
Biosequence: AGCUCAGAGUGACUCGAUAAGAGUCACAAACGAGGACCGGUACGGCCGCCACUCGAAAUAACGAGAGUGAUGUUCUCGCUGAGCA [#SwitchBubble 1 #StaticStem #K4Late]
Measured Endpoint: apparent KD of K4 kissing-loop reporter
Unit Spec: nM
Observed Result: 1160

Item GGAGUUACCUGGGAUACCAGCCGGAGGCCCAGAGCUCGGAGUGAUGUUCUGGGAUGUUUCGGCCCUUGGCAGCUCUGGGUCUCCG [#2 Exclusion - Theophylline B Attempt #5 (HarryS)] with K4 kissing-loop RNA reporter - apparent KD of K4 kissing-loop reporter? 1050

API: value(readout= apparent KD of K4 kissing-loop reporter, system= K4 kissing-loop RNA reporter, query= ACUCCGAGUGAUGUUAAGAGAUUCUCUGUUAAGGAUAUUUUGCGCAAAAGAAGGUAACCCGGUUUUCGUAAUCUGUUAAUGCGGA [theeternabot_exclusion_KL_FMN_A_38] ) 572

What apparent KD of K4 kissing-loop reporter appears in the records for this sequence with K4 kissing-loop RNA reporter? "GCCGUAGAUGGAAGGAGCGUGUCAAAGUGAUGUUUUGAUUAACUCCCUAAGGGAUAGAUGACACAGGUAGGUCGCCAUCUACGGC" 74.5

Fill in the recorded apparent KD of K4 kissing-loop reporter for this sequence, with K4 kissing-loop RNA reporter as test system: UGAUUUAACUGAAGGAGCGGCAAUAGAGAAGGAAAUAUAGUGAUGUUAUAUAAGAGAGAGAGCCAGGUAGGUCGCAGAGGGAGGA [ExArgB.F] 181

Give K4 kissing-loop RNA reporter apparent KD of K4 kissing-loop reporter for ACCCGGGCCCGAAAGGGCCCGGGAAGAGAUACCAGCAGCGAAAGCUGCCCUUGGCAGCUCACUUAGUGAUGUUGAGAAUAGGGCG [#21 K4 Theophylline A Same State] 657

Which apparent KD of K4 kissing-loop reporter is reported with K4 kissing-loop RNA reporter for this entry: AUUUGUUUAUGUGAUACCAGACUUUGCAGUGAUGUUGCAUUUAUUUUAGAAUUUUAUUUAGUCCCUUGGCAGCACUAUGUAUUUA [JR_SSTheophyB_Sub007] ? 47

Form: Entry = UUUUACGAGUGAUGUUCGUAAUGUAAUAGUUAGGAUAUCGUUUUUUCGAGAAGGAACUUCGAAGUGAUACGAAAGUAUCGCUUCG [FMN A 9] | System = K4 kissing-loop RNA reporter | apparent KD of K4 kissing-loop reporter = ____ 127
